Data provenance is PubChem BioAssay (NCI).

system: SN12C renal; test: NCI-60 one-dose screen, 48 h (100 = growth as untreated, 0 = no growth, -100 = all killed); details: 10 µM unless noted
The panel holds about 83,000 compounds, 20% with a hit somewhere; the sample as a whole holds those more often.
OBSERVED_PROPERTY: growth (%)
Numbers only, in %.

// below: answered molecules
The recorded growth for entry O=[N+]([O-])c1ccc(C=C2C(Cl)=C(Cl)C(Cl)=C2Cl)cc1 equals 52.3

For record c1ccc2cc(Cn3c(-c4ccc5ccccc5c4)[n+](Cc4ccc5ccccc5c4)c4ccccc43)ccc2c1 the listed growth is -88.2

Value of growth reported for the molecule CSC1=CC(=O)c2ccccc2C1=O is 97

Looking up NC(=O)c1cccc(-n2ccc3cc(NC(=O)Nc4ccc(Cl)c(Cl)c4)ccc32)n1 , I see its growth listed as 86.8

# context switch: different molecule, same growth
Data point: O=C(Nc1ccc(Cl)c(Cl)c1)OCn1ncc2ccc([N+](=O)[O-])cc21 ; growth = 95.1

---

system: OVCAR-3 ovarian; experiment: NCI-60 one-dose screen, 48 h; conditions: 10 µM unless noted
The panel holds about 83,000 compounds, 20% with a hit somewhere; the sample as a whole holds those more often. Active and inactive are the calls of the source. Rule for the calls: active = growth percent below 10; inactive = the rest.
Choose the fitting class; nothing outside true = active, false = inactive is accepted.

Completed entries (count: 5):
Incoming: Dear colleague, could you share the recorded outcome for Cc1nc2cc(Nc3nc(N4CCCCC4)nc(N4CCOCC4)n3)ccc2n1Cc1ccccc1 when you have a moment?
Outgoing: true

Incoming: Look up the recorded call for NS(=O)(=O)c1cc(Br)c2c(c1)S(=O)(=O)NCN2 in this test.
Outgoing: false

Incoming: Per the records of this test, what outcome belongs to COC(=O)[C@H]1CCCN1C(=O)[C@H]1CCCN1C(=O)[C@@H](Cc1c[nH]c2ccccc12)NC(=S)Nc1cc(C(F)(F)F)cc(C(F)(F)F)c1 ?
Outgoing: false

Incoming: Entry O=C(Nc1ccc(Cl)c(Cl)c1)OCn1ncc2ccc([N+](=O)[O-])cc21 : call = ?
Outgoing: false

Incoming: Can you look up the reported call for O=C(Nc1ccccc1O)c1ccc(NS(=O)(=O)c2cccc3cccnc23)cc1 for me?
Outgoing: false

Others:
Incoming: Query: recorded result category for COc1ccc(OC)c(/C=C2\Oc3cc(O)ccc3C2=O)c1 in this test
Outgoing: false

Incoming: Write down the call the test reported for this molecule. Item: CC1SC(c2ccc(Cl)cc2)N(CCc2cccs2)C1=O (stereo not drawn)
Outgoing: true

Incoming: # fetch the recorded call for COc1cc2oc(-c3ccc(O)cc3)cc(=O)c2c(O)c1I here
Outgoing: false

Incoming: What is the recorded call for this molecule in the test? COc1ccc(OC)c2ncccc12
Outgoing: false

Incoming: Which outcome was entered for the molecule O=C1c2ccccc2C(=O)c2c(Nc3ccc(CCO)cc3)ccc(O)c21 in this test?
Outgoing: false

Incoming: Can you look up the reported call for OB(O)c1ccccc1 for me?
Outgoing: false

Incoming: Recorded call for Cc1oc2c(c1C(=O)N1CC[C@@H](N)C1)C(=O)c1c(c(O)c3ccccc3c1O)C2=O ?
Outgoing: true

---

tested on: DU-145 prostate; assay: NCI-60 one-dose screen, 48 h; conditions: 10 µM unless noted
The panel holds about 83,000 compounds, 20% with a hit somewhere; the sample as a whole holds those more often. Active and inactive are the calls of the source. Rule for the calls: active = growth percent below 10; inactive = the rest.
Select the correct class. Options are active, inactive and nothing else.

These recorded examples may help you get a feel for the data.
Incoming: Which outcome did this test record for the compound CC(C)(C)CC(C)(C)N(CSc1ccc(Cl)cc1)CSc1ccc(Cl)cc1 ?
Outgoing: inactive

Incoming: Dear colleague, could you share the recorded outcome for O=c1[nH]c(-c2ccncc2)nc2sc3c(c12)CCCCCC3 when you have a moment?
Outgoing: inactive

Incoming: Could you check what this test reported for CSC1=CC(=O)c2ccccc2C1=O ?
Outgoing: inactive

Incoming: Short answer needed: outcome of this test for CC1=C(C/C=C(\C)CCC[C@H](C)CCC[C@H](C)CCCC(C)C)C(=O)c2ccccc2C1=O ?
Outgoing: inactive

Incoming: Which result was noted for this compound in the test: CN1CCN(CCCn2c3c(sc4ncccc43)c(=O)n3nnc(-c4ccccc4)c23)CC1
Outgoing: active

Next:
Incoming: Name the outcome recorded for O=c1oc2ccccc2cc1-c1csc(N=Nc2c(O)[nH]c3ccc(Br)cc23)n1 in the assay.
Outgoing: inactive

Incoming: Outcome? Cc1ccccc1-n1nnc(C(=O)Nc2nc(-c3ccccc3)c(-c3ccccc3)s2)c1C
Outgoing: inactive

Incoming: Entry ONc1nc(NO)c2[nH]cnc2n1 : call = ?
Outgoing: inactive
